Reference for the values: ChEMBL document CHEMBL3352736

# System: HL-60
# protocolDetails: […] of human HL60 cells incubated for 144 hrs by Wst-1 dye based assay
# Assay type: functional
# settings: HL-60, 144 h
Rule for this label: true (1) means IC50 is less than 8 µM; false (0) means IC50 is at least 8 µM.

Example entries and their recorded answers appear below.
- molecule: "CC(C)CCC[C@@H](C)[C@H]1CC[C@H]2/C(=C/c3cccc(C(O)CCO)c3)CCC[C@]12C (some centres not stated)"
  label: "true (1)"
- molecule: "C[C@H](CC#CC(C)(C)O)[C@H]1CC[C@H]2/C(=C/c3ccc(CO)c(CO)c3)CCC[C@]12C"
  label: "true (1)"

Problem: For the molecule C[C@H](CC#CC(C)(C)O)[C@H]1CC[C@H]2/C(=C/c3cccc(CO)c3CO)CCC[C@]12C , is IC50 under 8 µM?
false (0)

What would you report for CC(C)CCC[C@@H](C)[C@H]1CC[C@H]2/C(=C/c3ccc(CO)c(CO)c3)CCC[C@]12C ?
false (0)

What would you report for C[C@H](CCCC(C)(C)O)[C@H]1CC[C@H]2/C(=C/c3cccc(C(O)CCO)c3)CCC[C@]12C (some centres not stated) ?
true (1)

What would you report for CC(C)CCC[C@@H](C)[C@H]1CC[C@H]2/C(=C/c3cccc(CO)c3CO)CCC[C@]12C ?
false (0)
